test-summary: Toxicity in HT4-6C cells by visual grading of cell morphology
recorded-conditions: human
assay-readout: CC50 at 3 days

> print(dat)
                                        smi   assay.readout  endpoint.result
1        CCCCCCCCCCCCCCCCCCOC(=O)P(=O)(O)OC  CC50 at 3 days            10 µM
2  CCCCCCCCCCCCCCCCCCCCOC(=O)P(=O)(O)OC[C@H]1O[C@@H](n2cc(C)c(=O)[nH]c2=O)C[C@@H]1N=[N+]=[N-]  CC50 at 3 days            32 µM
3      CCCCCCCCCCCCCCCCCCCCOC(=O)P(=O)(O)OC  CC50 at 3 days            10 µM
4  CCCCCCCCCCCCCCCCCCCCCCOC(=O)P(=O)(O)OC[C@H]1O[C@@H](n2cc(C)c(=O)[nH]c2=O)C[C@@H]1N=[N+]=[N-]  CC50 at 3 days           320 µM

With those in mind, consider the next compound.
INPUT: Answer with reported CC50 at 3 days of CCCCCCCCCCCCCCCCCCOC(=O)P(=O)(O)OC[C@H]1O[C@@H](n2cc(C)c(=O)[nH]c2=O)C[C@@H]1N=[N+]=[N-]
OUTPUT: 10 µM

----------
System: A018-post
test-summary: HIV plaque reduction assay, AZT-resistant strain
Type: cell-based, HIV-1
recorded-conditions: Human immunodeficiency virus 1
assay-readout: EC50 (nM)
Number only, in nM; omit the unit.

> print(dat)
                                   compound  assay.readout  endpoint.result
1  O=C(O)P(=O)(O)O [PFA, phosphonoformic acid, reference compound]           EC50            65000

INPUT: Answer with reported EC50 of CCCCCCCCCCCCCCCCCCOC(=O)P(=O)(O)OC[C@H]1O[C@@H](n2cc(C)c(=O)[nH]c2=O)C[C@@H]1N=[N+]=[N-] [Example 20]
OUTPUT: 300

INPUT: Answer with reported EC50 of CCCCCCCCCCCCCCCCCCCCCCOC(=O)P(=O)(O)OC[C@H]1O[C@@H](n2cc(C)c(=O)[nH]c2=O)C[C@@H]1N=[N+]=[N-] [Example 22]
OUTPUT: 770

INPUT: Answer with reported EC50 of CCCCCCCCCCCCCCCCCCCCOC(=O)P(=O)(O)OC[C@H]1O[C@@H](n2cc(C)c(=O)[nH]c2=O)C[C@@H]1N=[N+]=[N-] [Example 21]
OUTPUT: 530

----------
Parameter: CC50. Scope: all listed entries.
Tested on: human T-Lymphoblastic Leukemia Cells (CEM cells)
test-summary: Toxicity in CEM cells by propidium iodide staining and flow cytometry
Format: cell-based
recorded-conditions: rapidly dividing CEM cells, viable cell numbers; read-out: TC50 (the source's name)
Number only, in µM; omit the unit.

> print(dat)
                                        smi  endpoint.result
1  CCCCCCCCCCCCCCCCOCCCOP(=O)(O)C(=O)OC[C@H]1O[C@@H](n2cc(C)c(=O)[nH]c2=O)C[C@@H]1N=[N+]=[N-]               65
2  CCCCCCCCCCCCCCCCCCOC(=O)P(=O)(O)OC[C@H]1O[C@@H](n2cc(C)c(=O)[nH]c2=O)C[C@@H]1N=[N+]=[N-]               28
3  CCCCCCCCCCCCCCCCCCCCOC(=O)P(=O)(O)OC[C@H]1O[C@@H](n2cc(C)c(=O)[nH]c2=O)C[C@@H]1N=[N+]=[N-]               36

INPUT: Answer with reported CC50 of CCCCCCCCCCCCCCCCCCCCCCOC(=O)P(=O)(O)OC[C@H]1O[C@@H](n2cc(C)c(=O)[nH]c2=O)C[C@@H]1N=[N+]=[N-]
OUTPUT: 93
